ASSAY SYSTEM: CXCR3B (Homo sapiens, UniProt P49682)
Sequence (P49682 1-415 isoform P49682-2): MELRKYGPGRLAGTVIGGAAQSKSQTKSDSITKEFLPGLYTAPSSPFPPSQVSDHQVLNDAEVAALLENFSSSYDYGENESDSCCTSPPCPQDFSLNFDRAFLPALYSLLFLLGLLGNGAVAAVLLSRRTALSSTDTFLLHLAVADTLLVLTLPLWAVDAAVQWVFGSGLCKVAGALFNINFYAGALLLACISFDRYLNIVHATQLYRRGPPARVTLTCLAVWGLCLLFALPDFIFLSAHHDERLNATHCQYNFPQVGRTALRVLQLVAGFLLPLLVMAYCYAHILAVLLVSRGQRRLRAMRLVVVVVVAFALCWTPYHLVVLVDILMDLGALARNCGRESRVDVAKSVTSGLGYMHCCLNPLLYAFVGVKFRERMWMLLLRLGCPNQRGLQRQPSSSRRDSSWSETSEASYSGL
pKi: −log10 of the molar value.
READOUT TYPE: pKi

{"columns": ["MOLECULAR STRING", "VALUE REPORTED"],
 "data": [
  ["CC[C@H]1CN(c2ncc(-c3nnco3)cc2Cl)CCN1C1CCN(Cc2ccc(Cl)cc2F)CC1", 9.51]
]}

All figures here come from paper PMC10338423.
